Origin of measurements: patent US20220259289A1

systemUnderTest: T1, human serum albumin (human, UniProt P02768 25-609)
T1 construct: Negative control antigen of the screening ELISA; also called HSA
T1 sequence (P02768 25-609 limits assumed): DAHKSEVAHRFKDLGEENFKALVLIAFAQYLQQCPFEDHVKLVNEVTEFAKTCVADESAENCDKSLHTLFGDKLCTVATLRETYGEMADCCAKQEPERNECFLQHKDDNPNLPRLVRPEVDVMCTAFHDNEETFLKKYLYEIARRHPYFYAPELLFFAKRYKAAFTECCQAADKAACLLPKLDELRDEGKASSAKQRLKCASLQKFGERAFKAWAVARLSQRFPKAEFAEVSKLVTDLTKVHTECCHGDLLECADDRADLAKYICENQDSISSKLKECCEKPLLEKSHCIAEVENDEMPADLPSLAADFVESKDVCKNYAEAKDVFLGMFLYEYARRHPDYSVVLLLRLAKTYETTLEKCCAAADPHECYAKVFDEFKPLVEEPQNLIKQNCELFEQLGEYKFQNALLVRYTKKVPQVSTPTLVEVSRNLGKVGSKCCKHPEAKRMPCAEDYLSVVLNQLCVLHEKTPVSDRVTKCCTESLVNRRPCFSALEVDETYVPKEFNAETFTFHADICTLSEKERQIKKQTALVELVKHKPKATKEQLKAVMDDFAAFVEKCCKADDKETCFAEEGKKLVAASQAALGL
experimentSummary: ELISA, bacterial lysate on plate-bound antigen, luminescence
parameterMeasured: ELISA HSA (RLU)
One number for each entry, in RLU.

The examples below pair each entry with its known result.
binder="ISOP120GR5P1E7 (designed binder, not shown: small tags and cut ends, FN3 domain (Centyrin); tested as E. coli lysate) LPAPKNLVVSRVTEDSARLSWTAPDAAFDSFEIDYWEVESEGEAIILFVPGSERSYDLTGLKPGTEYHVHIVGVKGGTPSYPLWADFTT" recordedvalue=480
binder="ISOP120HR5P1A6 (designed binder, not shown: small tags and cut ends, FN3 domain (Centyrin); tested as E. coli lysate) LPAPKNLVVSRVTEDSARLSWTAPDGAFDSFEIYYLEGGRGEAIVLTVPGSERSYDLTGLKPGTEYLVTIYGIKCGWASNPLSAIFTT" recordedvalue=400
binder="ISOP120BR5P1D2 (designed binder, not shown: small tags and cut ends, FN3 domain (Centyrin); tested as E. coli lysate) LPAPKNLVVSRVTEDSARLSWIRKHNHVKWFDSFLIQYQESEKVGEAIVLTVPGSERSYDLTGLKPGTEYTVSIYGVGFLIDTDDSNPLSAIFTT" recordedvalue=240

Hi! Can you tell me ELISA HSA (RLU) for each of these binders?
1. ISOP120BR5P1C7 (designed binder, not shown: small tags and cut ends, FN3 domain (Centyrin); tested as E. coli lysate) LPAPKNLVVSRVTEDSARLSWNVTQKEFDSFLIQYQESEKVGEAIVLTVPGSERSYDLTGLKPGTEYTVSIYGVGNRYYTVYDSNPLSAIFTT
2. ISOP120GR5P1A10 (designed binder, not shown: small tags and cut ends, FN3 domain (Centyrin); tested as E. coli lysate) LPAPKNLVVSRVTEDSARLSWTAPDAAFDSFEIPYIEVETIGEAIWLHVPGSERSYDLTGLKPGTEYSVGINGVKGGHTSNPLSARFTT
3. ISOP120GR5P1E1 (designed binder, not shown: small tags and cut ends, FN3 domain (Centyrin); tested as E. coli lysate) LPAPKNLVVSRVTEDSARLSWTAPDAAFDSFIIQYAEDSSWGEAINLHVPGSERSYDLTGLKPGTEYHVHIYGVKGGEASNPLWAWFTT
4. ISOP120BR5P1E4 (designed binder, not shown: small tags and cut ends, FN3 domain (Centyrin); tested as E. coli lysate) LPAPKNLVVSRVTEDSARLSWDDQFEDWFDSFLIQYQESEQVGEAIVLTVPGSERSYDLTGLKPGTEYTVSIYGVHTRDWTAWNASNPLSAIFTT
5. ISOP120BR5P1H3 (designed binder, not shown: small tags and cut ends, FN3 domain (Centyrin); tested as E. coli lysate) LPAPKNLVVSRVTEDSARLSWEESRQFFDSFLIQYQESEKVGEAIVLTVPGSERSYDLTGLKPGTEYTVSIYGVVHRAWLRWNGSNPLSAIFTT
6. ISOP120FR5P1E10 (designed binder, not shown: small tags and cut ends, FN3 domain (Centyrin); tested as E. coli lysate) LPAPKNLVVSRVTEDSARLSWTAPDAAFDSFLIHYTEQPSKGEAIVLTVPGSERSYDLTGLKPGTEYQVPIGVKGGTQSCPLSAIFTT
7. ISOP120ER5P1E5 (designed binder, not shown: small tags and cut ends, FN3 domain (Centyrin); tested as E. coli lysate) LPAPKNLVVSRVTEDSARLSWTAPDAAFDSFRISYLEDVYYGEAIVLTVPGSERSYDLTGLKPGTEYHVGIHGVKGGIDSFPLSAIFTT

-- reply
1: 240; 2: 400; 3: 320; 4: 560; 5: 720; 6: 320; 7: 320
